system.tested: T1, murine GPC3-his protein (Sino Biological, Cat. No. 50989-M08B) (murine, UniProt Q8CFZ4 25-558)
T1 construct: Bought protein; also called murine GPC3 protein
experiment.summary: ELISA, coated murine GPC3-His;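 further: antigen coated on plates at 1 µg/mL, test antibody bound for 2 h at 37 °C, detected with HRP-conjugated secondary antibody and TMB substrate after acid stop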
OD450 at 100 nM antibody overview

binder | readout.unit | OD450 at 100 nM antibody
F1.83.6 human-murine chimeric antibody (antibody, human IgG1, kappa, V domains shown) VH: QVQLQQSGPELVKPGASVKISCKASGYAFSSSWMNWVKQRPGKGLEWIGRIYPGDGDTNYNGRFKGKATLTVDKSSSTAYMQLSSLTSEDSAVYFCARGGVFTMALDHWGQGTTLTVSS VL: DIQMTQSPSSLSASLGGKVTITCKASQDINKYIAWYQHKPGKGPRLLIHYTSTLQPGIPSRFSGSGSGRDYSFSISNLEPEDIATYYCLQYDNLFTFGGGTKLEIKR | OD450 nm | 0.16
F1.145.22 human-murine chimeric antibody (antibody, human IgG1, kappa, V domains shown) VH: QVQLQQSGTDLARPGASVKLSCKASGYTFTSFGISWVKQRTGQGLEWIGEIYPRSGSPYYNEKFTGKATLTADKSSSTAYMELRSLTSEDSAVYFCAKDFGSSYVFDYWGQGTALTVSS VL: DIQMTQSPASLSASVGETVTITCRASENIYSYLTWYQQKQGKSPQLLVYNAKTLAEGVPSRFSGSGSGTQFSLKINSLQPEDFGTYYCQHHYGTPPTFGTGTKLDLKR | OD450 nm | 1.32
F1.2.14 human-murine chimeric antibody (antibody, human IgG1, kappa, V domains shown) VH: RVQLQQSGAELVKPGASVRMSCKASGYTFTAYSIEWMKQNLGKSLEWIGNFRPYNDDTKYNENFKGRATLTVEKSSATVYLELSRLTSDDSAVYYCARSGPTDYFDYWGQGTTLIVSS VL: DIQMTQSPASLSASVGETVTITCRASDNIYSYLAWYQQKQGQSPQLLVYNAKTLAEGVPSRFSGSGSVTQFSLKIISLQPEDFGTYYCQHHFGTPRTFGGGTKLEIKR | OD450 nm | 1.24
